Ref: paper PMC6702078

pIC50: −log10 of the molar value.
Measured pIC50 on hCYP2D6 (Homo sapiens, UniProt P10635) follows.
Sequence (P10635 whole entry): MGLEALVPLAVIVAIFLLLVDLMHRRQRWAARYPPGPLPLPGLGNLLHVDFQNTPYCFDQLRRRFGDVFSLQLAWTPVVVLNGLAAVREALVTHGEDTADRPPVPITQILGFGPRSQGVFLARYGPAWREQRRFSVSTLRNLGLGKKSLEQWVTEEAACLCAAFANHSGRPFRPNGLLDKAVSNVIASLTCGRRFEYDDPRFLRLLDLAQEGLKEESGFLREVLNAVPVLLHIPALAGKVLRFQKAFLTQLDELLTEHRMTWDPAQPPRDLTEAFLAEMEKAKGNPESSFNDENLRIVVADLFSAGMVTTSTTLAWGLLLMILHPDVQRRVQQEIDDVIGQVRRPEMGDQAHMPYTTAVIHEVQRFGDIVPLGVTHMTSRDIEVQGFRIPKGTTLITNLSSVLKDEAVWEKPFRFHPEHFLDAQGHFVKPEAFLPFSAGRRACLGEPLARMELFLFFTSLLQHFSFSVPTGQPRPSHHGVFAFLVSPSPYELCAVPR
readout kind: pIC50

• C[N+]1(CC(=O)OC2CCCCCCCCCCC2)CCSCC1.[I-] = 5.03
• C[N+]1(CC(=O)OC2CCCCCCCCCCC2)CCCC1.[I-] = 5.07
• C[N+]1(CC(=O)OC2CCCCCCCCCCC2)CCCCCC1.[I-] = 5.36
• CC1(C)CC[N+](C)(CC(=O)OC2CCCCCCCCCCC2)CC1.[I-] = 5.00
• C[N+]1(CC(=O)NC2CCCCCCCCCCC2)CCCCC1.[I-] = 5.63

----------
- Test system: castration-resistant PC-3 PC cells
- procedure details: Cell viability
- Assay type: cell-based, human
- settings: Homo sapiens, 96 h, read-out: ED50
readout kind: IC50 (µM)

* C[C@]1(c2nc3c(C(N)=O)cccc3[nH]2)CCCN1 [Veliparib, reference compound] | 70.5
* O=C(c1cc(Cc2n[nH]c(=O)c3ccccc23)ccc1F)N1CCN(C(=O)C2CC2)CC1 [Olaparib, reference compound] | 9.3
* C[N+]1(CC(=O)OC2CCCCCCCCCCC2)CCSCC1.[I-] [MC-270021] | 60.6
* C[N+]1(CC(=O)OC2CCCCCCCCCCC2)CCCCCC1.[I-] [MC-270017] | 17.5
* CC1(C)CC[N+](C)(CC(=O)OC2CCCCCCCCCCC2)CC1.[I-] [MC-270019] | 14.6
* CNCc1ccc(-c2[nH]c3cc(F)cc4c3c2CCNC4=O)cc1 [Rucaparib, reference compound] | 7
* C[N+]1(CC(=O)OC2CCCCCCCCCCC2)CCCC1.[I-] [MC-270016] | 22.4
* C[N+]1(CC(=O)NC2CCCCCCCCCCC2)CCCCC1.[I-] [FC-7220] | 36.8

----------
- Test system: androgen-dependent LNCaP PC cells
- procedure details: Cell viability
- Assay type: cell-based, human
- settings: Homo sapiens, 96 h, read-out: ED70
readout kind: IC70 (µM)

- C[C@]1(c2nc3c(C(N)=O)cccc3[nH]2)CCCN1 [Veliparib, reference compound]: 153
- C[N+]1(CC(=O)NC2CCCCCCCCCCC2)CCCCC1.[I-]: 29.4
- CNCc1ccc(-c2[nH]c3cc(F)cc4c3c2CCNC4=O)cc1 [Rucaparib, reference compound]: 52.6
- CC1(C)CC[N+](C)(CC(=O)OC2CCCCCCCCCCC2)CC1.[I-]: 5.2
- C[N+]1(CC(=O)OC2CCCCCCCCCCC2)CCCC1.[I-]: 6.1
- C[N+]1(CC(=O)OC2CCCCCCCCCCC2)CCSCC1.[I-]: 20.3
- C[N+]1(CC(=O)OC2CCCCCCCCCCC2)CCCCCC1.[I-]: 4.1
- O=C(c1cc(Cc2n[nH]c(=O)c3ccccc23)ccc1F)N1CCN(C(=O)C2CC2)CC1 [Olaparib, reference compound]: 163

----------
Measured pIC50 on hCYP3A4 (Homo sapiens, UniProt P08684) follows.
Sequence (P08684 whole entry): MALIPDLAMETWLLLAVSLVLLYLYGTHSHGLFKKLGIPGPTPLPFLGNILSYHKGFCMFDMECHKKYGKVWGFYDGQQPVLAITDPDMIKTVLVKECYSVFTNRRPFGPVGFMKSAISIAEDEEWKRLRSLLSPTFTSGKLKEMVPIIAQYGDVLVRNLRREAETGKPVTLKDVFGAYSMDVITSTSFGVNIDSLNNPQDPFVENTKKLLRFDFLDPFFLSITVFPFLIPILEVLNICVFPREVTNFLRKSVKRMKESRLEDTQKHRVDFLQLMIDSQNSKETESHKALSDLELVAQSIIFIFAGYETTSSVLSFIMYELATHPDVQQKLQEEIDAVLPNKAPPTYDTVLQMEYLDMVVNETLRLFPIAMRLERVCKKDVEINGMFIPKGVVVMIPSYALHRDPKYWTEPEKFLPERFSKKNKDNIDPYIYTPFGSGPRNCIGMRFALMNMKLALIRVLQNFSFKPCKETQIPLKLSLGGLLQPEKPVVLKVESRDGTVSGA
pIC50: −log10 of the molar value.
readout kind: pIC50

* CC1(C)CC[N+](C)(CC(=O)OC2CCCCCCCCCCC2)CC1.[I-] | 5.33
* C[N+]1(CC(=O)NC2CCCCCCCCCCC2)CCCCC1.[I-] | 5.71
* C[N+]1(CC(=O)OC2CCCCCCCCCCC2)CCCCCC1.[I-] | 5.77
* C[N+]1(CC(=O)OC2CCCCCCCCCCC2)CCCC1.[I-] | 5.53
* C[N+]1(CC(=O)OC2CCCCCCCCCCC2)CCSCC1.[I-] | 5.41

----------
- procedure details: Human liver microsome stability
- Type: in vitro ADME
- settings: both, liver microsomes, pH 7.4
Below is a list of entries, each paired with its recorded remaining at 1 h, 1 μM value.
readout kind: remaining at 1 h, 1 μM (%)

- C[N+]1(CC(=O)OC2CCCCCCCCCCC2)CCCC1.[I-] [MC-270016]: 92
- C[N+]1(CC(=O)OC2CCCCCCCCCCC2)CCCCCC1.[I-] [MC-270017]: 95
- CC1(C)CC[N+](C)(CC(=O)OC2CCCCCCCCCCC2)CC1.[I-] [MC-270019]: 92
- C[N+]1(CC(=O)OC2CCCCCCCCCCC2)CCSCC1.[I-] [MC-270021]: 85
- C[N+]1(CC(=O)NC2CCCCCCCCCCC2)CCCCC1.[I-] [FC-7220]: 100

----------
Below is a list of entries, each paired with its recorded half-life at 1 μM value.
- procedure details: Mouse plasma stability
- Assay type: in vitro ADME
- settings: male, C57BL/6, mouse, mouse plasma, pH 7.4
readout kind: half-life at 1 μM (min)

- C[N+]1(CC(=O)OC2CCCCCCCCCCC2)CCCCCC1.[I-] [MC-270017]: 35.9
- CC1(C)CC[N+](C)(CC(=O)OC2CCCCCCCCCCC2)CC1.[I-] [MC-270019]: 19.6
- C[N+]1(CC(=O)OC2CCCCCCCCCCC2)CCSCC1.[I-] [MC-270021]: 118
- C[N+]1(CC(=O)OC2CCCCCCCCCCC2)CCCC1.[I-] [MC-270016]: 57.2
